All values here come from patent EP4682145A1.

Target: human FFAR1 (GPR40) (Homo sapiens, UniProt O14842)
Construct: Flag; expressed in transfected cells; host or cells: HEK293T
Sequence (O14842 whole entry): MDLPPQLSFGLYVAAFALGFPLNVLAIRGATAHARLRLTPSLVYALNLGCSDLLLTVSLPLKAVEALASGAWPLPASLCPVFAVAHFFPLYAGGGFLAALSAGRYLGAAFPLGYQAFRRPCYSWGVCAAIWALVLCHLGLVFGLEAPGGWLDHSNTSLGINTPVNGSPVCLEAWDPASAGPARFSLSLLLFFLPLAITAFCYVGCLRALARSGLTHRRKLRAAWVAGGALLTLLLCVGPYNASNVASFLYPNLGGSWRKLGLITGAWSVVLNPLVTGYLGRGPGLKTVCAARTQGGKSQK
Assay: NFAT-RE-based reporter gene activity assay (Dual-Glo luciferase) for GPR40 agonistic activity in co-transfected HEK293T cells
Assay type: cell-based
Details: 4-hour treatment, class symbols

Compound | Efficacy (%)
COc1cccc(N2CCC(c3oc4cc([C@@H](CC(=O)O)C5CC5)ccc4c3C(OCC(C)C)c3ccccc3C)CC2)c1 (some centres unmarked) | ††† (Efficacy (%) > 150)
COc1cccc(N2CCC(c3oc4cc(C(CC(=O)O)C5CC5)ccc4c3C(=O)Nc3cccc(Br)c3)CC2)c1 (centres unmarked) | ††† (Efficacy (%) > 150)

====

Target: human FFAR1 (GPR40) (Homo sapiens)
Construct: Flag; expressed in transfected cells; host or cells: HEK293T
Test: NFAT-RE-based reporter gene activity assay (Dual-Glo luciferase) for GPR40 agonistic activity in co-transfected HEK293T cells
Assay type: cell-based
Details: 4-hour treatment
Method: The pcDNA3.0-flag-FFAR1 (GPR40) plasmid was constructed using conventional molecular cloning methods. […] After 4 hours of compound treatment, the cells were assayed according to the instructions of the Dual-Glo® Luciferase Assay System (Promega, # E2940). […] Then, 80 µL of the lysate reaction solution was transferred to a white opaque optiPlate-96 well plate, and the luminescence signal of Firefly luciferase (Firefly-Luc) was measured using an MD i3x multifunctional microplate reader. […]
Quantity Kind: EC50

Compound | Endpoint Result
COc1ccc(F)c(N2CCC(c3oc4cc([C@@H](CC(=O)O)C5CC5)ccc4c3-c3ccc(C)cc3)CC2)c1 [Compound 161] | 100 to 500 nM
COc1ccc(-c2c(C3CCN(c4cc(OC)ccc4F)CC3)oc3cc([C@@H](CC(=O)O)C4CC4)ccc23)cc1 [Compound 179] | 100 to 500 nM
COc1ccc(F)c(N2CCC(c3oc4cc([C@@H](CC(=O)O)C5CC5)ccc4c3-c3ccc(C(C)(C)O)cc3)CC2)c1 [Compound 177] | 100 to 500 nM
COc1cccc(N2CCC(c3oc4cc(C(CC(=O)O)C5CC5)ccc4c3C(=O)NC3CCC(C)(C)CC3)CC2)c1 (centres unmarked) [Compound 348] | 100 to 500 nM
COc1ccc(F)c(N2CCC(c3oc4cc(C(CC(=O)O)C5CC5)ccc4c3C(=O)NCC(C)C)CC2)c1 (centres unmarked) [Compound 310] | 100 to 500 nM
COc1ccc(F)c(N2CCC(c3oc4cc([C@H](C5CC5)C(C)C(=O)O)ccc4c3-c3cccc(C(C)(C)C)c3)CC2)c1 (some centres unmarked) [Compound 217] | 10 to 100 nM
CCCCCCNC(=O)c1ccc(OC)cc1N1CCC(c2oc3cc(C(CC(=O)O)C4CC4)ccc3c2-c2cnn(C(C)(C)C)c2)CC1 (centres unmarked) [Compound 95] | 100 to 500 nM
COc1cccc(N2CCC(c3oc4cc(C(CC(=O)O)C5CC5)ccc4c3C(=O)Nc3ccccc3C#N)CC2)c1 (centres unmarked) [Compound 236] | 10 to 100 nM
COc1cccc(N2CCC(c3oc4cc([C@@H](CC(=O)O)C5CC5)ccc4c3C(=O)Nc3cc(C)ccc3OC)CC2)c1 [Compound 272] | 10 to 100 nM
COc1cccc(N2CCC(c3oc4cc([C@@H](CC(=O)O)C5CC5)ccc4c3-c3cnn(C(C)(C)C)c3)CC2)c1F [Compound 87] | 10 to 100 nM
COc1cccc(N2CCC(c3oc4cc(C(CC(=O)O)C5CC5)ccc4c3-c3cnn(C(C)(C)C)c3)CC2)c1Cl (centres unmarked) [Compound 88] | 100 to 500 nM
COc1cccc(N2CCC(c3oc4cc(C(CC(=O)O)C5CC5)ccc4c3-c3nnc(C(C)(C)C)o3)CC2)c1 (centres unmarked) [Compound 124] | 10 to 100 nM
CCC(CC(=O)O)c1ccc2c(-c3cccc(C(C)(C)C)c3)c(C3CCN(c4cc(OC)ccc4F)CC3)oc2c1 (centres unmarked) [Compound 233] | 100 to 500 nM
COc1cccc(N2CCC(c3oc4cc(C(CC(=O)O)C5CC5)ccc4c3C(=O)Nc3cc(-c4ccccc4)nn3C)CC2)c1 (centres unmarked) [Compound 302] | 100 to 500 nM

====

Biological target: human FFAR1 (GPR40) (Homo sapiens, UniProt O14842)
Construct: Flag; expressed in transfected cells; host or cells: HEK293T
Experiment: NFAT-RE-based reporter gene activity assay (Dual-Glo luciferase) for GPR40 agonistic activity in co-transfected HEK293T cells
Assay type: cell-based
Details: 4-hour treatment, class symbols

Compound | Efficacy (%)
COc1cccc(N2CCC(c3oc4cc([C@@H](CC(=O)O)C5CC5)ccc4c3-c3ccc4ccccc4n3)CC2)c1 [Compound 154] | ††† (Efficacy (%) > 150)
CCC(C)COC(C)c1c(C2CCN(c3cccc(OC)c3)CC2)oc2cc([C@@H](CC(=O)O)C3CC3)ccc12 (stereo partly shown) [Compound 413] | ††† (Efficacy (%) > 150)

====

Experiment: Pharmacokinetic evaluation in ICR mice (intravenous and gavage)
Format: in vivo
Conditions: male, ICR, mouse, plasma, po, Gavage Administration (10 mg/kg), read-out: AUC0-7 h

Chemical Structure | AUC(0-t) [ng·h/mL]
COc1ccc(F)c(N2CCC(c3oc4cc([C@@H](CC(=O)O)C5CC5)ccc4c3-c3cnn(C(C)(C)C)c3)CC2)c1 | 92200

====

Molecular target: human FFAR1 (GPR40) (Homo sapiens)
Construct: Flag
Assay: NFAT-RE-based reporter gene activity assay (Dual-Glo luciferase) for GPR40 agonistic activity in co-transfected HEK293T cells
Details: 4-hour treatment
pEC50: −log10 of the molar value.
# pEC50 listing for each entry below

Compound | Target Under Test | pEC50
COc1cccc(N2CCC(c3oc4cc([C@@H](CC(=O)O)C5CC5)ccc4c3-c3nnc(C(C)(C)C)o3)CC2)c1 [Compound 125] | human FFAR1 (GPR40) (Homo sapiens) | 7.00 to 8.00
COc1cccc(N2CCC(c3oc4cc(C(CC(=O)O)C5CC5)ccc4c3C(=O)Nc3nc4ccccc4s3)CC2)c1 (stereo not shown) [Compound 297] | human FFAR1 (GPR40) (Homo sapiens) | 6.30 to 7.00
COc1cccc(N2CCC(c3oc4cc([C@@H](CC(=O)O)C5CC5)ccc4c3CC=C(C)C)CC2)c1 [Compound 374] | human FFAR1 (GPR40) (Homo sapiens) | 7.00 to 8.00
COc1ccc(F)c(N2CCC(c3oc4cc([C@@H](CC(=O)O)C5CC5)ccc4c3-c3cccc(OC(F)(F)F)c3)CC2)c1 [Compound 173] | human FFAR1 (GPR40) (Homo sapiens) | 6.30 to 7.00

====

Molecular target: human FFAR1 (GPR40) (Homo sapiens)
Construct: Flag; expressed in transfected cells; host or cells: HEK293T
Test: NFAT-RE-based reporter gene activity assay (Dual-Glo luciferase) for GPR40 agonistic activity in co-transfected HEK293T cells
Type: cell-based
Conditions: 4-hour treatment
pEC50: −log10 of the molar value.

Compound | pEC50
CCCCCC(C)(C)c1nnc(-c2c(C3CCN(c4cccc(OC)c4)CC3)oc3cc(C(CC(=O)O)C4CC4)ccc23)o1 (stereo not shown) | 7.00 to 8.00
COc1cccc(N2CCC(c3oc4cc([C@@H](CC(=O)O)C5CC5)ccc4c3C3OCC(C)(C)CO3)CC2)c1 | 6.30 to 7.00
COc1cc(N2CCC(c3oc4cc(C(CC(=O)O)C5CC5)ccc4c3-c3ccc(C(C)(C)C)cc3)CC2)ccc1F (stereo not shown) | 6.30 to 7.00
COc1cccc(N2CCC(c3oc4cc([C@@H](CC(=O)O)C5CC5)ccc4c3-c3cccc(C)n3)CC2)c1 | 7.00 to 8.00
CCOC(C)c1c(C2CCN(c3cccc(OC)c3)CC2)oc2cc([C@@H](CC(=O)O)C3CC3)ccc12 (stereo partly shown) | 6.30 to 7.00
COc1cccc(N2CCC(c3oc4cc([C@@H](CC(=O)O)C5CC5)ccc4c3-c3nnc(C(C)(C)C)o3)CC2)c1F | ≥ 8.00
COc1cccc(NC(=O)c2c(C3CCN(c4cccc(OC)c4)CC3)oc3cc(C(CC(=O)O)C4CC4)ccc23)c1 (stereo not shown) | 6.30 to 7.00

====

Biological target: human FFAR1 (GPR40) (Homo sapiens)
Construct: Flag
Test: NFAT-RE-based reporter gene activity assay (Dual-Glo luciferase) for GPR40 agonistic activity in co-transfected HEK293T cells
Settings: 4-hour treatment
pEC50: −log10 of the molar value.

Compound | pEC50
COc1cccc(N2CCC(c3oc4cc([C@@H](CC(=O)O)C5CC5)ccc4c3C(OCC(C)C)c3ccc(F)cc3)CC2)c1 (stereo partly drawn) [Compound 431] | 6.30 to 7.00
COc1ccc(F)c(N2CCC(c3oc4cc(C(CC(=O)O)C5CC5)ccc4c3C(=O)Nc3cccc(C)c3)CC2)c1 (stereo not drawn) [Compound 320] | 7.00 to 8.00
COc1cccc(N2CCC(c3oc4cc([C@@H](CC(=O)O)C5CC5)ccc4c3C(=O)Nc3cc(C(F)(F)F)ccc3F)CC2)c1 [Compound 261] | ≥ 8.00
CNC(=O)c1cc(-c2c(C3CCN(c4cccc(OC)c4)CC3)oc3cc(C(CC(=O)O)C4CC4)ccc23)cn1C (stereo not drawn) [Compound 82] | 6.30 to 7.00
COc1ccc(F)c(N2CCC(c3oc4cc(C(CC(=O)O)C5CC5)ccc4c3-c3ccccc3C)CC2)c1 (stereo not drawn) [Compound 159] | 6.30 to 7.00
COc1cccc(N2CCC(c3oc4cc(C(CC(=O)O)C5CC5)ccc4c3C(=O)Nc3cc(C(C)(C)C)no3)CC2)c1 (stereo not drawn) [Compound 301] | 6.30 to 7.00
COc1cccc(N2CCC(c3oc4cc([C@@H](CC(=O)O)C5CC5)ccc4c3-c3ncc(C(C)(C)C)s3)CC2)c1 [Compound 113] | ≥ 8.00
COc1cccc(N2CCC(c3oc4cc(C(CC(=O)O)C5CC5)ccc4c3C(=O)Nc3ncns3)CC2)c1 (stereo not drawn) [Compound 293] | 6.30 to 7.00
COc1ccc(F)c(N2CCC(c3oc4cc(C(CC(=O)O)C5CC5)ccc4c3C3=CCCCC3)CC2)c1 (stereo not drawn) [Compound 379] | 6.30 to 7.00
COc1cccc(N2CCC(c3oc4cc([C@@H](CC(=O)O)C5CC5)ccc4c3-c3csc(OC)n3)CC2)c1 [Compound 105] | 7.00 to 8.00
COc1cccc(N2CCC(c3oc4cc([C@@H](CC(=O)O)C5CC5)ccc4c3C(=O)Nc3cc(-c4ccccc4)ccc3Cl)CC2)c1 [Compound 280] | 6.30 to 7.00
COc1ccc(F)c(N2CCC(c3oc4cc(C(CC(=O)O)C5CC5)ccc4c3CCC(C)(C)O)CC2)c1 (stereo not drawn) [Compound 390] | 6.30 to 7.00
CCn1cc(-c2c(C3CCN(c4cccc(OC)c4)CC3)oc3cc(C(CC(=O)O)C4CC4)ccc23)cn1 (stereo not drawn) [Compound 37] | 6.30 to 7.00
COc1ccc(F)c(N2CCC(c3oc4cc([C@H](C5CC5)C(F)C(=O)O)ccc4c3-c3ccc(C(C)(C)C)cc3)CC2)c1 (stereo partly drawn) [Compound 220] | 6.30 to 7.00
COc1ccc(F)c(N2CCC(c3oc4cc([C@H](CC(=O)O)C5CC5)ccc4c3-c3ccc(C(C)(C)C)cc3)CC2)c1 [Compound 170] | 6.30 to 7.00
COc1ccc(OC)c(N2CCC(c3oc4cc(C(CC(=O)O)C5CC5)ccc4c3-c3cnn(C(C)(C)C)c3)CC2)c1 (stereo not drawn) [Compound 85] | 6.30 to 7.00
COc1cccc(N2CCC(c3oc4cc([C@@H](CC(=O)O)C5CC5)ccc4c3C(=O)Nc3ccccc3C)CC2)c1F [Compound 324] | ≥ 8.00
COc1cccc(N2CCC(c3oc4cc([C@@H](CC(=O)O)C5CC5)ccc4c3-c3csc(C(C)C)n3)CC2)c1 [Compound 107] | 6.30 to 7.00
COc1ccc(F)c(N2CCC(c3oc4cc(C(CC(=O)O)C5CC5)ccc4c3-c3cccc(N(C(C)=O)C(C)C)c3)CC2)c1 (stereo not drawn) [Compound 191] | 6.30 to 7.00
COc1ccc(F)c(N2CCC(c3cc4ccc(C(CC(=O)O)C5CC5)cc4o3)CC2)c1 (stereo not drawn) [Comparative Example 1, reference compound] | < 6.00
COc1cccc(N2CCC(c3oc4cc(C(CC(=O)O)C5CC5)ccc4c3C(=O)Nc3nccn3C)CC2)c1 (stereo not drawn) [Compound 304] | 6.30 to 7.00
COc1cccc(N2CCC(c3oc4cc([C@@H](CC(=O)O)C5CC5)ccc4c3-c3cc4ccccc4[nH]3)CC2)c1 [Compound 150] | 6.30 to 7.00
CCc1cccc(NC(=O)c2c(C3CCN(c4cccc(OC)c4)CC3)oc3cc(C(CC(=O)O)C4CC4)ccc23)c1 (stereo not drawn) [Compound 243] | < 6.30
COc1cccc(N2CCC(c3oc4cc([C@@H](CC(=O)O)C5CC5)ccc4c3C(=O)Nc3ccccc3-c3ccccc3)CC2)c1 [Compound 241] | 6.30 to 7.00
COc1cccc(N2CCC(c3oc4cc([C@@H](CC(=O)O)C5CC5)ccc4c3-c3nc(C(C)(C)C)co3)CC2)c1 [Compound 117] | 7.00 to 8.00
COc1ccc(F)c(N2CCC(c3oc4cc(C(CC(=O)O)C5CC5)ccc4c3C(=O)Nc3ccc(F)cc3)CC2)c1 (stereo not drawn) [Compound 317] | 6.30 to 7.00
COc1cccc(N2CCC(c3oc4cc(C(CC(=O)O)C5CC5)ccc4c3C(=O)Nc3cccc(Br)c3)CC2)c1 (stereo not drawn) [Compound 247] | 6.30 to 7.00
